Biological target: T1, cell surface mALK on Neuro2a cells (Mus musculus, UniProt P97793)
T1 construct: Neuro-2a cells that express low levels of endogenous murine ALK; endogenous in cells; host or cells: Neuro-2a (Neuro2a) mouse neuroblastoma cells
T1 sequence (P97793 19-1621): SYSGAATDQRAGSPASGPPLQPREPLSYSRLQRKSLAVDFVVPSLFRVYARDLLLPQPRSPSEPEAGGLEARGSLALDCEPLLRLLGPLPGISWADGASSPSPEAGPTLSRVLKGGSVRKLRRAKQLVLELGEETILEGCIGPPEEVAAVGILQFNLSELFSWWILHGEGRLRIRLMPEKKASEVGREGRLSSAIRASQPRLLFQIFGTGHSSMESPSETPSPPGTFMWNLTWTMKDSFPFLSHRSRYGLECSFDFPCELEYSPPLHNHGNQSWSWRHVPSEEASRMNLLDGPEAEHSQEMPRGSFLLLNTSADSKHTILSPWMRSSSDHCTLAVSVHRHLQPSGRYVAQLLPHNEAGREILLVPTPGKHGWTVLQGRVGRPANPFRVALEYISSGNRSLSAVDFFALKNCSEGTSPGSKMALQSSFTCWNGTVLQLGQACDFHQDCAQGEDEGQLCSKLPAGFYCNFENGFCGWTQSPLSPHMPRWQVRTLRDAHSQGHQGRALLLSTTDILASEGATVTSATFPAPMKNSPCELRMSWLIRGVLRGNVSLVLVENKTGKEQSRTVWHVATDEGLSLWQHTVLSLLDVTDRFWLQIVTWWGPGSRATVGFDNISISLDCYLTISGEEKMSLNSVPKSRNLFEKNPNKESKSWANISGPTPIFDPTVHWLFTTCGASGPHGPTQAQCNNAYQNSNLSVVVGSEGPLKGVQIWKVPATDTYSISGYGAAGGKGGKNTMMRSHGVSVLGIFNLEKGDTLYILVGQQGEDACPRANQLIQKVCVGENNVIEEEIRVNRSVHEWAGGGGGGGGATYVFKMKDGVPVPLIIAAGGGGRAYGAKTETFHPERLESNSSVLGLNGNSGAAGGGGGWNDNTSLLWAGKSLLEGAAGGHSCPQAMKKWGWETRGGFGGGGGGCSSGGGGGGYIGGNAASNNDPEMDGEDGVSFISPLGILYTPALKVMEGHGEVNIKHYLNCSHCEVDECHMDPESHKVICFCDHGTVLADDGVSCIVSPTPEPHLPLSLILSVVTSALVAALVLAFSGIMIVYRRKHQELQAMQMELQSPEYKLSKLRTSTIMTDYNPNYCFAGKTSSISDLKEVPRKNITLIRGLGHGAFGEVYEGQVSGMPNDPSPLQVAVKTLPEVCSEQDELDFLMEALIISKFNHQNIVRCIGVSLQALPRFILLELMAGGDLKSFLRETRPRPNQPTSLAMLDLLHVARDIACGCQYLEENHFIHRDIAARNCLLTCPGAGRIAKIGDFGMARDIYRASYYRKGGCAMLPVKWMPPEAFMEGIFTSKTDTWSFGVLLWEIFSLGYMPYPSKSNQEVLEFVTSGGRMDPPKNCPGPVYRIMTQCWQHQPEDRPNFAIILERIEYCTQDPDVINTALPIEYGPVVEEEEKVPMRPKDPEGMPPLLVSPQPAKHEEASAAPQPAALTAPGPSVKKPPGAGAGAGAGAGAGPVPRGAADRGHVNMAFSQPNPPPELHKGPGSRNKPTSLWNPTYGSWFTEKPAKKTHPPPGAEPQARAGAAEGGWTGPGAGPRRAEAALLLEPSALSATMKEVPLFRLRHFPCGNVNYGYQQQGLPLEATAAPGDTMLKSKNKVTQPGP
Assay: KD of humanized antibodies on Neuro2a (mouse) cells
Assay type: binding
Conditions: FACS, mean

molecule	Kd
Ab402: humanized anti-ALK antibody; VL SEQ ID NO: 425, VH SEQ ID NO: 432 (antibody, V domains shown, VH domain - Ab354; VL domain - Ab399) VH: EVQLVQSGAEVKKPGTSVKLSCKASGYTFTSYWMHWVRQARGQRLEWIGYIKPSSGYTKYAQKFQERVTLTADKSTSTAYMELSSLRSEDTAVYYCARDYYGSSSWFAYWGQGTLVTVSS VL: EIVMTQSQATMSTSVGERATLSCKASQNVGTNVAWYQQKPGQSPKALIYSASYRYSGVPARFSGSGSGTDFTLTISSVEPEDFAVYYCQQYNSYPYMYTFGQGTKLEIK	2.8 nM

Where do the numbers come from? From patent US11091559B2.
